Data credit: patent US20250250357A1

# Target Under Test: T1, human MSLN-hFc protein (Acro, Cat. No. MSN-H5253) (human, UniProt Q13421 296-580)
# T1 construct: the method names the coated protein as human MSLN-hFc (Acro); also called human MSLN full-length protein
# T1 sequence (Q13421 other isoform, or with tags, fused parts or gaps limits assumed): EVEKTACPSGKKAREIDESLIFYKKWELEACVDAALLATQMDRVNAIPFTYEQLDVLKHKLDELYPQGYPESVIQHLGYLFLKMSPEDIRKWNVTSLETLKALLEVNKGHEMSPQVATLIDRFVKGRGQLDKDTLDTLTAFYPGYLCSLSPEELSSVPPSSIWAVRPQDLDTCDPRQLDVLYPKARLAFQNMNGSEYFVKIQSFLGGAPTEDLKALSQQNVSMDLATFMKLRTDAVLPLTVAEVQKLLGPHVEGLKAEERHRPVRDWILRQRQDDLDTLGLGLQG
# Test Summary: ELISA on coated antigen, antibody 1 nM
Readout: OD450 (OD450)

INSERT INTO measurements (binder, readout, numeric_result) VALUES
  ('F7.33.24 (scFv, not shown: small tags and cut ends, also called S009-F7.33.24 (parental variable regions, in the humanized-antibody ELISA)) scFv: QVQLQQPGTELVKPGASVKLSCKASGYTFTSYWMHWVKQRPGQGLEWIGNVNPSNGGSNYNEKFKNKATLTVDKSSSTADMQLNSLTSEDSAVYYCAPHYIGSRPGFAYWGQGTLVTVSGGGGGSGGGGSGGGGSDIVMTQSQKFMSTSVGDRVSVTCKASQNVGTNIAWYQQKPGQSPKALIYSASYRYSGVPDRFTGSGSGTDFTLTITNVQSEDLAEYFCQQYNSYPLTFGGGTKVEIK', 'OD450', 0.27),
  ('F7.33.24-H12 (scFv, not shown: small tags and cut ends, also called S009-F7.33.24 humanized antibody VH2a + VL3) scFv: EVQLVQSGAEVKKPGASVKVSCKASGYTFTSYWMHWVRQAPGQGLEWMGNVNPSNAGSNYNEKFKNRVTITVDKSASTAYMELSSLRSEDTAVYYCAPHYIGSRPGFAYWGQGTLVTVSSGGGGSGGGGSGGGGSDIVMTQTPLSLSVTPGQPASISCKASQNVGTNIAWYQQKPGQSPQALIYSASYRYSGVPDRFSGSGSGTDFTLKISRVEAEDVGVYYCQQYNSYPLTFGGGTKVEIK', 'OD450', 0.58),
  ('F7.33.24-H5 (scFv, not shown: small tags and cut ends, also called S009-F7.33.24 humanized antibody VH1a + VL2) scFv: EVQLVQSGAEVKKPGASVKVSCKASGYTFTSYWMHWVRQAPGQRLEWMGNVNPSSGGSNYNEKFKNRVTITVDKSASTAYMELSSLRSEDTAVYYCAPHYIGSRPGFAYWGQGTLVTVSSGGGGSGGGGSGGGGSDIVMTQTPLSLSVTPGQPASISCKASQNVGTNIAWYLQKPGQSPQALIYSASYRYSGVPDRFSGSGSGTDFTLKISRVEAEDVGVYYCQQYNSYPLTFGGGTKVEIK', 'OD450', 0.33),
  ('F7.33.24-H9 (scFv, not shown: small tags and cut ends, also called S009-F7.33.24 humanized antibody VH2 + VL3) scFv: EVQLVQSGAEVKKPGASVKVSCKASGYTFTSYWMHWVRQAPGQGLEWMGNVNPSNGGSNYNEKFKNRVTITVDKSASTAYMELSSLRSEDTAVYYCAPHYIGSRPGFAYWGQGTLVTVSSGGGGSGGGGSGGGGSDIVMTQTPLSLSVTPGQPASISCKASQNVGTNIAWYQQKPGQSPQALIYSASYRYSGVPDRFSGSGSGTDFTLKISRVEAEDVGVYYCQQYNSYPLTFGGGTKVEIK', 'OD450', 0.66);
